test-name: Solubility of compound in phosphate buffer at pH 6.5
Assay type: physicochemical
result-type: solubility

Solved cases (2 shown):
# molecule, readout-value
rows = [
    ("COC(=O)N[C@H](C(=O)N[C@@H](Cc1ccccc1)[C@H](CN(Cc1ccc(-c2ccccn2)cc1)NC(=O)[C@@H](NC(=O)OC)C(C)(C)C)OC(=O)OC(C)OC(=O)[C@H](C(C)C)N(C)C)C(C)(C)C (stereo in doubt; 21)", "< 1 µg/mL"),
    ("COC(=O)N[C@H](C(=O)N[C@@H](Cc1ccccc1)[C@H](CN(Cc1ccc(-c2ccccn2)cc1)NC(=O)[C@@H](NC(=O)OC)C(C)(C)C)OC(=O)OC(C)OC(=O)[C@@H](C(C)C)N(C)C)C(C)(C)C (stereo in doubt; 23)", "< 1 µg/mL"),
]

# ---- query molecule ----
Query: Give a short answer stating reported solubility for `COC(=O)N[C@H](C(=O)N[C@@H](Cc1ccccc1)[C@@H](O)CN(Cc1ccc(-c2ccccn2)cc1)NC(=O)[C@@H](NC(=O)OC)C(C)(C)C)C(C)(C)C` .
Reply: < 1 µg/mL

###

test-name: Solubility of compound in acetate buffer at pH 4
Assay type: physicochemical
applied-conditions: acetate buffer, read-out: solubility
result-type: solubility

Examples with answers:
# compound, solubility
rows = [
    ("COC(=O)N[C@H](C(=O)N[C@@H](Cc1ccccc1)[C@H](CN(Cc1ccc(-c2ccccn2)cc1)NC(=O)[C@@H](NC(=O)OC)C(C)(C)C)OC(=O)OC(C)OC(=O)[C@@H](N)C(C)C)C(C)(C)C (stereo in doubt; 18)", "> 3000 µg/mL"),
    ("COC(=O)N[C@H](C(=O)N[C@@H](Cc1ccccc1)[C@H](CN(Cc1ccc(-c2ccccn2)cc1)NC(=O)[C@@H](NC(=O)OC)C(C)(C)C)OC(=O)OCOC(=O)[C@H](C(C)C)N(C)C)C(C)(C)C", "> 450 µg/mL"),
    ("COC(=O)N[C@H](C(=O)N[C@@H](Cc1ccccc1)[C@H](CN(Cc1ccc(-c2ccccn2)cc1)NC(=O)[C@@H](NC(=O)OC)C(C)(C)C)OC(=O)OC(C)OC(=O)[C@H](C(C)C)N(C)C)C(C)(C)C (stereo in doubt; 21)", "> 980 µg/mL"),
]

Query: Return the recorded solubility value; entry: COC(=O)N[C@H](C(=O)N[C@@H](Cc1ccccc1)[C@H](CN(Cc1ccc(-c2ccccn2)cc1)NC(=O)[C@@H](NC(=O)OC)C(C)(C)C)OC(=O)OC(C)OC(=O)[C@@H](C(C)C)N(C)C)C(C)(C)C (stereo in doubt; 23)
Reply: > 600 µg/mL
